growth inhibition for assorted compounds
# assay details: NCI Yeast Anticancer Drug Screen. Data for the bub3 strain (AID 167)
# study conditions: S. cerevisiae bub3 mutant strain, at 50.0 µM, stronger effect = higher value
About 79,000 compounds went through this panel and 15% of them were active in at least one assay; those are over-represented in the sample as a whole.
# output: bare number, implied unit %

Worked cases, answers included:
Record request: growth inhibition value, item COC(=O)c1cc2c(cc1CC1Cc3cc4c(cc3C1=O)CCC4)CCC2 (stereo not drawn) 19.6

Record request: growth inhibition value, item O=C1CCSC(=S)N1c1ccc(F)cc1 -22.9

Record request: growth inhibition value, item N#Cc1c2ccccc2c(C#N)c2ccccc12 1.3

Record request: growth inhibition value, item COC(=O)/C(C#N)=C(\C)CC(C)C -24.4

Record request: growth inhibition value, item CCOC(=S)SCc1cc(C(C)(C)C)c(O)c(C(C)(C)C)c1 1.15

Record request: growth inhibition value, item C[CH2][Ge]([CH2]C)[CH2]C.C[CH2][Ge]([CH2]C)[CH2]C 0.9

Others:
Record request: growth inhibition value, item COc1ccc(C(c2cc3c(cc2O)OCO3)N2CCN(C(c3ccc(OC)cc3)c3cc4c(cc3O)OCO4)CC2)cc1 (stereo not drawn) -1.65

Record request: growth inhibition value, item O=C1CCCc2cc3c(cc21)CC1(C3)Cc2cc3c(cc2C1)C(=O)CCC3 -11.2

Record request: growth inhibition value, item c1ccc(-c2nnc3nn4c(-c5ccccc5)cnnc4c3c2-c2ccccc2)cc1 -6.05

Record request: growth inhibition value, item Cc1cc(=O)oc2c(CNC(CC(C)C)C(=O)O)c(O)ccc12 (stereo not drawn) -24.8

Record request: growth inhibition value, item CNC(=O)c1ccc(/C=C/c2c[nH]c3ccccc23)[n+](C)c1 -2.65

Record request: growth inhibition value, item N#Cc1sc2nc3c(c(-c4ccccc4)c2c1N)CCCC3 -8.1

Record request: growth inhibition value, item COc1ccccc1NC(=O)C(CC(C(=O)Nc1ccccc1OC)/C(C)=N/NC(=O)c1ccccc1O)/C(C)=N/NC(=O)c1ccccc1O (stereo not drawn) -3.55

Record request: growth inhibition value, item CC(=O)NCC1CCCO1 (stereo not drawn) 3.75

Record request: growth inhibition value, item Cc1nn(C(=O)c2ccccn2)c(-c2ccccc2)c1N=Nc1ccc(S(=O)(=O)Nc2ncccn2)cc1 1.5

Record request: growth inhibition value, item CC(OS(C)(=O)=O)C(C)OS(C)(=O)=O (stereo not drawn) 0.95

Record request: growth inhibition value, item COc1cc(CNC(=O)CCCCCCCCCCSSCCCCCCCCCCC(=O)NCc2ccc(O)c(OC)c2)ccc1O -13.3

Record request: growth inhibition value, item Brc1cccc(-c2nnc(-c3ccccc3)o2)c1 -0.4

Record request: growth inhibition value, item CN1c2ccccc2C2CC(CC#N)CC(=O)C21 (stereo not drawn) -20.2

Record request: growth inhibition value, item CC(=O)OCCSSCCOC(C)=O -1.9

Record request: growth inhibition value, item CN1C(=O)C(Cl)(C#N)C(c2ccccc2)N(C)C1c1ccccc1 (stereo not drawn) 39.4

Record request: growth inhibition value, item CCCCCN(C(=O)c1ccccc1C(=O)N(CCCCC)c1ccccc1)c1ccccc1 3.4

Record request: growth inhibition value, item CN(C)CCCNc1ccc([N+](=O)[O-])c2nc3ccccc3c(N)c12 -11.4
